Recorded melting point values for a group of compounds are listed next.
OBSERVATION_TYPE: melting point

>>> value_reported("CC1=C(N2CCN(C(=O)Nc3ccc(Cl)cc3)CC2)C(=O)c2ccccc2C1=O")
"190 to 192 °C"
>>> value_reported("COC(=O)c1sccc1-c1cc2c(cc1C)C(C)(C)CCC2(C)C")
"89 to 90 °C"
>>> value_reported("O[C@@H](c1c[nH]nc1-c1ccccc1)[C@H](CCN1CCC(O)(c2ccccc2)CC1)c1ccc(Cl)c(Cl)c1 (racemic)")
"133 to 135 °C"
>>> value_reported("CN(C)c1ccc(NC(=O)Cn2c(-c3ccc(Cl)cc3)nc3cccnc32)cc1")
"245 to 246 °C"
>>> value_reported("Cc1c(OCC(O)CN2CCOCC2)noc1-c1ccccc1 (stereo not given)")
"94 to 95 °C"
>>> value_reported("CN(Cc1ccc(COC(=O)NC(Cc2ccccc2)C(=O)O)cc1)c1ccccc1 (stereo not given)")
"69.6 to 70.1 °C"
>>> value_reported("Nc1cc([N+](=O)[O-])ccc1CO")
"126 to 128 °C"
>>> value_reported("Cc1nc[nH]c1CSCCNC(=C[N+](=O)[O-])NN")
"142 °C"
>>> value_reported("CCCCCCCCCCC[C@@H]1CC(=O)CC(=O)O1")
"82 to 85 °C"
>>> value_reported("CCOC(=O)c1nn(-c2cccc(Br)c2)c(=O)c2c(N)scc12")
"163 to 165 °C"

---

Recorded melting point values for a group of compounds are listed next.
OBSERVATION_TYPE: melting point

>>> value_reported("Cc1ccc(C(=O)Nc2c(NC(=O)CN3CCN(c4ccccc4)CC3)ccc3c2C(=O)c2ccccc2C3=O)cc1")
"270 to 271 °C"
>>> value_reported("O=C(O)CCC(CC=Cc1ccccc1)(C(=O)C=Cc1ccc(Cl)cc1)c1ccccc1 (stereo not drawn)")
"135 to 140 °C"
>>> value_reported("CCc1nc2c(cnn2CC)c(NC2CCOCC2)c1CNC(=O)c1cccc(C(=O)NCc2cc(Cl)cc(-c3cccc(CN4CCCN(C)CC4)c3)c2)c1")
"111 to 113 °C"
>>> value_reported("CC(C)(C)c1cc(C2(C)NC(=O)NC2=O)cc(C(C)(C)C)c1O (stereo not drawn)")
"260 °C"
>>> value_reported("CC(NC(=O)OCc1ccccc1)C(=O)N1C(C(=O)O)CC2CCCCC21 (stereo not drawn)")
"58.6 °C"
>>> value_reported("CC1CCc2c(N3CCOCC3)c(F)cc3c(=O)c(C(=O)O)cn1c23 (stereo not drawn)")
"279 to 280 °C"
>>> value_reported("CC(Oc1ccc(Oc2ccc(C(F)(F)F)cc2Cl)cc1)C(=O)O (stereo not drawn)")
"90 to 92 °C"
>>> value_reported("Cc1cc(C)n(C(=O)C2c3ccccc3Oc3ccccc32)n1")
"114 to 115 °C"

---

Recorded melting point values for a group of compounds are listed next.
OBSERVATION_TYPE: melting point

>>> value_reported("CC(Oc1cccc(Cl)c1)c1nnc(N)s1 (centres undefined)")
"136 to 138 °C"
>>> value_reported("O=C(O)CCc1cc2cc(Cl)ccc2n1S(=O)(=O)c1ccccn1")
"189 °C"
>>> value_reported("N#Cc1cnn(-c2c(Cl)cc(Cl)cc2Cl)c1N")
"208 to 210 °C"
>>> value_reported("COc1ccc(-c2c(C(=O)c3ccccc3)c(CSc3nccn3C)nc3cc(OC)c(OC)cc23)cc1OC")
"185 to 186 °C"
>>> value_reported("Cc1c(C)c2c(c(C)c1N)C(c1ccc(F)cc1)C(C)(C)O2 (centres undefined)")
"126 to 127 °C"
>>> value_reported("CC(=O)OC1CSC(Oc2cccc(-c3cccc(Cl)n3)c2)C(OC(C)=O)C1OC(C)=O (centres undefined)")
"186 to 189 °C"
>>> value_reported("Cc1nc(N2CCN(CC3CC3)C2=O)sc1C(=O)NCc1ccncn1")
"188 to 191 °C"
>>> value_reported("CC(C)(C)C(=O)N[C@H]1CC[C@H](CCN2CCN(c3nccc4c3CCO4)CC2)CC1")
"185 °C"
>>> value_reported("Cc1cnc(C2(CCCCN3CCC(N4Cc5ccccc5C4=O)CC3)c3ccccc3-c3ccccc32)s1")
"146 to 148 °C"

---

Recorded melting point values for a group of compounds are listed next.
OBSERVATION_TYPE: melting point

>>> value_reported("CC(C(=O)NCCN(C)C)n1cc(-c2ccc(Oc3ccccc3)cc2)c2c(N)ncnc21 (stereo not given)")
"163 to 164 °C"
>>> value_reported("O=C(OCc1ccccc1)c1cccc(OCc2ccccc2)c1[N+](=O)[O-]")
"81.7 to 84.7 °C"
>>> value_reported("Cc1c(C(C)(C)C)cc(C(C)C)c(-c2c(C(C)C)cc(C(C)(C)C)c(C)c2O)c1O")
"105 to 108 °C"
>>> value_reported("O=C(CCCCl)c1cc2c3c(c1)CCN3C(=O)CC2")
"123 to 124 °C"
>>> value_reported("CN1C(=O)CCC2(CCC(=O)c3ccccc32)C1=O (stereo not given)")
"136 to 138 °C"
>>> value_reported("O=C(O)CCC(=NOCc1ccc(OCc2csc(-c3ccccc3)n2)cc1)c1ccccc1")
"104 to 105 °C"
>>> value_reported("Cc1ccc(Cc2cnc[nH]2)cc1NS(C)(=O)=O")
"170 °C"
>>> value_reported("O=c1ccoc2c3c(ccc12)OCC(CO)O3 (stereo not given)")
"125 °C"
>>> value_reported("N#Cc1cnn2c(C(F)(F)F)cc(-c3ccc(C(F)(F)F)c(F)c3)nc12")
"184 °C"
>>> value_reported("Cc1ccc(OC2=C(Oc3ccc(C)c(C)c3)C(F)(F)C(F)(F)C2(F)F)cc1C")
"65 to 67 °C"

---

OBSERVATION_TYPE: melting point

>>> value_reported("CC1Cc2cc(C#N)ccc2C1=O (stereo not given)")
"90 to 91 °C"
>>> value_reported("O=S(=O)(Nc1ccc(Cl)cc1I)c1ccc2ncsc2c1")
"162 °C"
>>> value_reported("COc1ccc(CCN(C)CCOc2ccc(NC(=O)c3cccc4c(=O)c5ccccc5n(C)c34)cc2)cc1OC")
"139 °C"
>>> value_reported("COC(C)=CC(=O)Nc1cccc(OC(=O)NC2CCCCC2)c1")
"200 °C"
>>> value_reported("N#Cc1c(N2CCCCC2)cc(-c2cccs2)c2c1Cc1ccccc1-2")
"148 to 150 °C"
>>> value_reported("CCC(C)(CC)N=C(NC#N)Nc1cc(Cl)cc(Cl)c1")
"148 to 150 °C"
>>> value_reported("CCNC(=O)Cc1ccc2ccn(C3CCN(CCc4ccccc4F)CC3)c2c1")
"147 to 149 °C"
>>> value_reported("CCON=C(CC)C1=C(O)CC(c2c(C)c(C)c3c(c2Cl)CC(C)(CC)C3)CC1=O (stereo not given)")
"93 to 94 °C"
>>> value_reported("CCn1c(=O)c2[nH]c(/C=C/c3cc(C(F)(F)F)cc(C(F)(F)F)c3)nc2n(CC)c1=O")
"> 280 °C"
>>> value_reported("NCCCc1cn(S(=O)(=O)c2c(Cl)nc3sccn23)c2ccc(F)cc12")
"139 to 141 °C"

---

Recorded melting point values for a group of molecules are listed next.
OBSERVATION_TYPE: melting point

>>> value_reported("CN(C)C(=O)NCCc1cccc(-c2nc(=O)c3ccccc3s2)n1")
"190 to 191 °C"
>>> value_reported("Oc1ccc2c(c1)CCCC(c1ccccc1)=C2c1ccc(OCCCCCI)cc1")
"192 to 193 °C"
>>> value_reported("Clc1cc2c(nn1)CCCCCCCCCC2")
"126 to 128 °C"
>>> value_reported("CC(C)(C#N)ON1C(C)(C)CNC(=O)CC1(C)C")
"130 to 134 °C"
>>> value_reported("CCCCC(CC)C(=O)Nc1ccc(-n2nc(C(F)(F)F)cc2C(F)(F)F)cc1 (stereo unspecified)")
"127 to 128 °C"
>>> value_reported("Cc1ccccc1CC(=NC#N)NC(NC(=O)Cc1ccc(F)c(F)c1)C(C)(C)C (stereo unspecified)")
"178 to 179 °C"
>>> value_reported("COc1ccc(CC(=Nc2ccccc2)NC(=S)NCCO)cc1")
"117 to 119 °C"
>>> value_reported("N#Cc1cc(NC(=O)c2cc3ccccc3s2)ccc1N1CCC(N2CCCCC2)CC1")
"275 °C"
>>> value_reported("NS(=O)(=O)c1ccc(NC(=O)Nc2cccc([N+](=O)[O-])c2)cc1")
"246 to 248 °C"
>>> value_reported("COc1cc(C)c2cc(C(C)O)ccc2c1C (stereo unspecified)")
"78 °C"
>>> value_reported("CC(=O)N1CCC(c2ccc(S(=O)(=O)Cl)cc2)CC1")
"133 to 134 °C"
>>> value_reported("CCOC(=O)c1c(Nc2ccncc2)c2ccc(Cl)cc2n1C")
"154 to 155 °C"
>>> value_reported("COc1cc(NCCN2CCC(Nc3nc4ccccc4n3Cc3ccc(F)cc3)CC2)ncn1")
"146 °C"
>>> value_reported("Cn1c(-c2ccccc2)c(-c2ccc(C(=O)O)cc2)c2ccccc21")
"165 to 166 °C"
>>> value_reported("Oc1cc(Cl)cc2c1CCC2")
"56 to 59 °C"
>>> value_reported("CCC(CC)C(c1ccnn1-c1ccccc1)N(C)S(=O)(=O)c1ccc(Cl)s1 (stereo unspecified)")
"126 to 128 °C"
>>> value_reported("CCCC1(C(=O)N(C)Cc2ccccc2)c2ccccc2-c2ccccc21")
"73 to 74 °C"
>>> value_reported("CCOC(=O)c1cccnc1NC(=O)Cc1cccc(Oc2ccccc2)c1")
"90 to 91 °C"
>>> value_reported("CN1CCC(c2c[nH]c3ccc(NC(=O)c4ccc(Cl)s4)nc23)CC1")
"118 to 120 °C"
>>> value_reported("CC(=O)NC[C@H]1CN(c2ccc(C3=CCN(C=O)CC3)c(F)c2)C(=O)O1")
"148 to 151 °C"
>>> value_reported("Cc1c(CO)cccc1NC(=O)CN1C[C@@H](C)N(c2ncnc3sccc23)[C@@H](C)C1")
"203 to 204 °C"
